# TARGET: LHRH receptors (Rattus norvegicus)
# Construct: Pituitary membranes containing LHRH receptors are prepared in batches from quick-frozen rat pituitaries; tissue Hilltop Labs; host or cells: rat pituitary membranes
# EXPERIMENT_DESCRIPTION: Receptor Binding (radioligand receptor binding assay)
# APPLIED_CONDITIONS: table 4; rat pituitary membranes, radioligand 50 pM, 2 hours at 4° C.; read-out: Receptor Binding pkI (converted)
Square brackets hold non-standard residues; d marks the D form. Peptide text beside a SMILES is read from it. * marks the point of attachment. Propanoyl(3-(4-F-phenyl)) = O=C(CCc1ccc(F)cc1)*; dPhe(4-Cl) = N[C@H](Cc1ccc(Cl)cc1)C(=O)O; d1Nal = N[C@H](Cc1cccc2ccccc12)C(=O)O; Lys(iPr) = CC(C)NCCCC[C@H](N)C(=O)O; d3Pal = N[C@H](Cc1cccnc1)C(=O)O
REPORTED_METRIC: Ki

compound="CCNC(=O)[C@@H]1CCCN1C(=O)[C@H](CCCNC(=N)N)NC(=O)[C@H](CC(C)C)NC(=O)[C@@H](Cc1ccc(Cl)cc1)NC(=O)[C@H](Cc1ccc(O)cc1)NC(=O)[C@H](CO)NC(=O)[C@@H](Cc1c[nH]c2ccccc12)NC(=O)CCc1ccc(F)cc1 [Compound 149] ({Propanoyl(3-(4-F-phenyl))}-[dW]SY[dPhe(4-Cl)]LRP-NHEt)" data_value="0.0295 nM"
compound="CCNC(=O)[C@@H]1CCCN1C(=O)[C@H](CCCNC(=N)N)NC(=O)[C@H](CC(C)C)NC(=O)[C@@H](Cc1c[nH]c2ccccc12)NC(=O)[C@H](Cc1ccc(O)cc1)NC(=O)[C@H](CO)NC(=O)[C@@H](Cc1ccc(Cl)cc1)NC(=O)CCc1ccc(F)cc1 [Compound 140] ({Propanoyl(3-(4-F-phenyl))}-[dPhe(4-Cl)]SY[dW]LRP-NHEt)" data_value="0.0891 nM"
compound="CC(C)C[C@H](NC(=O)[C@@H](Cc1cccnc1)NC(=O)[C@H](Cc1ccc(O)cc1)NC(=O)[C@H](CO)NC(=O)[C@@H](Cc1cccc2ccccc12)NC(=O)CCc1ccc(F)cc1)C(=O)N[C@@H](CCCCNC(C)C)C(=O)N1CCC[C@H]1C(=O)N[C@H](C)C(N)=O [Compound 201] ({Propanoyl(3-(4-F-phenyl))}-[d1Nal]SY[d3Pal]L[Lys(iPr)]P[dA]-NH2)" data_value="0.0204 nM"

* * *

Listing of entries alongside the reported Ki.
# TARGET: LHRH receptors (Rattus norvegicus)
# Construct: Pituitary membranes containing LHRH receptors are prepared in batches from quick-frozen rat pituitaries; tissue Hilltop Labs; host or cells: rat pituitary membranes
# EXPERIMENT_DESCRIPTION: Receptor Binding (radioligand receptor binding assay)
# APPLIED_CONDITIONS: table 4; rat pituitary membranes, radioligand 50 pM, 2 hours at 4° C.; read-out: Receptor Binding pkI (converted)
Square brackets hold non-standard residues; d marks the D form. Peptide text beside a SMILES is read from it. * marks the point of attachment. Propanoyl(3-(4-F-phenyl)) = O=C(CCc1ccc(F)cc1)*; d1Nal = N[C@H](Cc1cccc2ccccc12)C(=O)O; Lys(iPr) = CC(C)NCCCC[C@H](N)C(=O)O; NMeF = CN[C@@H](Cc1ccccc1)C(=O)O; Nicotinoyl = O=C(c1cccnc1)*
REPORTED_METRIC: Ki (nM)

compound="CC(C)C[C@H](NC(=O)[C@@H](CCCCNC(=O)c1cccnc1)NC(=O)[C@H](Cc1ccccc1)N(C)C(=O)[C@H](CO)NC(=O)[C@@H](Cc1cccc2ccccc12)NC(=O)CCc1ccc(F)cc1)C(=O)N[C@@H](CCCCNC(C)C)C(=O)N1CCC[C@H]1C(=O)N[C@H](C)C(N)=O [Compound 205] ({Propanoyl(3-(4-F-phenyl))}-[d1Nal]S[NMeF][dK](Nicotinoyl)L[Lys(iPr)]P[dA]-NH2)" data_value=0.0302
compound="CCNC(=O)[C@@H]1CCCN1C(=O)[C@H](CCCN=C(N)N)NC(=O)[C@H](CC(C)C)NC(=O)[C@@H](Cc1c[nH]c2ccccc12)NC(=O)[C@H](Cc1ccc(O)cc1)NC(=O)[C@H](CO)NC(=O)[C@@H](Cc1ccc(O)cc1)NC(=O)CCc1ccc(F)cc1 [Compound 141] ({Propanoyl(3-(4-F-phenyl))}-[dY]SY[dW]LRP-NHEt)" data_value=0.0257

* * *

# TARGET: LHRH receptors (Rattus norvegicus, UniProt P30969)
# Construct: Pituitary membranes containing LHRH receptors are prepared in batches from quick-frozen rat pituitaries; tissue Hilltop Labs; host or cells: rat pituitary membranes
# EXPERIMENT_DESCRIPTION: Receptor Binding (radioligand receptor binding assay)
# APPLIED_CONDITIONS: table 3; rat pituitary membranes, radioiodinated [D-Leu^6 -des Gly^10 ]-LHRH ethyl amide 50 pM, 2 hours at 4° C.; read-out: Receptor Binding pkI (converted)
Numbered stars: 1 amine (or outer) side, 2 acyl side, 3 side chain; on linkers, the order of the positions; unused ones are H or OH. Square brackets hold non-standard residues; d marks the D form. Peptide text beside a SMILES is read from it. * marks the point of attachment. Phenylacetyl(4-CF3) = O=C(Cc1ccc(C(F)(F)F)cc1)*; Propanoyl(3-(4-F-phenyl)) = O=C(CCc1ccc(F)cc1)*; 1Nal = N[C@@H](Cc1cccc2ccccc12)C(=O)O; d2Nal = N[C@H](Cc1ccc2ccccc2c1)C(=O)O; Morpholide = C1CN(*)CCO1; CO = O=C([*:1])[*:2]
# Ki per record follows
REPORTED_METRIC: Ki (pM)

compound="CCNC(=O)[C@@H]1CCCN1C(=O)[C@H](CCCNC(=N)N)NC(=O)[C@H](CC(C)C)NC(=O)[C@@H](Cc1ccc2ccccc2c1)NC(=O)[C@H](Cc1ccc(O)cc1)NC(=O)[C@H](CO)NC(=O)[C@@H](Cc1c[nH]c2ccccc12)NC(=O)CCc1ccc(F)cc1 [Compound 94] ({Propanoyl(3-(4-F-phenyl))}-[dW]SY[d2Nal]LRP-NHEt)" target="LHRH receptors (Rattus norvegicus, UniProt P30969)" data_value=309
compound="CCNC(=O)[C@@H]1CCCN1C(=O)[C@H](CCCNC(=N)N)NC(=O)[C@H](CC(C)C)NC(=O)[C@H](Cc1c[nH]c2ccccc12)NC(=O)[C@H](Cc1ccc(O)cc1)NC(=O)[C@H](CO)NC(=O)[C@H](Cc1c[nH]c2ccccc12)NC(=O)Cc1ccc(C(F)(F)F)cc1 [Compound 106] ({Phenylacetyl(4-CF3)}-WSYWLRP-NHEt)" target="LHRH receptors (Rattus norvegicus, UniProt P30969)" data_value=851
compound="CCNC(=O)[C@@H]1CCCN1C(=O)[C@H](CCCNC(=N)N)NC(=O)[C@H](CC(C)C)NC(=O)[C@@H](Cc1c[nH]c2ccccc12)NC(=O)[C@H](Cc1ccc(O)cc1)NC(=O)[C@H](CO)NC(=O)[C@H](Cc1cccc2ccccc12)NC(=O)N1CCOCC1 [Compound 137] ({Morpholide-CO}-[1Nal]SY[dW]LRP-NHEt)" target="LHRH receptors (Rattus norvegicus, UniProt P30969)" data_value=263

* * *

# TARGET: LHRH receptors (Rattus norvegicus, UniProt P30969)
# Construct: Pituitary membranes containing LHRH receptors are prepared in batches from quick-frozen rat pituitaries; tissue Hilltop Labs; host or cells: rat pituitary membranes
# Sequence (P30969 1-327): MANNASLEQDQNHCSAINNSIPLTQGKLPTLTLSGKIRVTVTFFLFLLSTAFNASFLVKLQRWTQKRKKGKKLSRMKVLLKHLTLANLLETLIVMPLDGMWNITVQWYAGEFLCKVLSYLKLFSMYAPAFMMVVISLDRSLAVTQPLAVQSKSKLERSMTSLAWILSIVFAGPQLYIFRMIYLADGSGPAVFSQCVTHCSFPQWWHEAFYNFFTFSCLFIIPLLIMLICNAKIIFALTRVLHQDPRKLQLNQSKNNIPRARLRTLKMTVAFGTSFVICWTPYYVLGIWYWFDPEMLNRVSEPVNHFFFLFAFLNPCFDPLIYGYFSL
# EXPERIMENT_DESCRIPTION: Receptor Binding (radioligand receptor binding assay)
# APPLIED_CONDITIONS: table 4; rat pituitary membranes, radioligand 50 pM, 2 hours at 4° C.; read-out: Receptor Binding pkI (converted)
Numbered stars: 1 amine (or outer) side, 2 acyl side, 3 side chain; on linkers, the order of the positions; unused ones are H or OH. Square brackets hold non-standard residues; d marks the D form. Peptide text beside a SMILES is read from it. * marks the point of attachment. Propanoyl(3-(4-F-phenyl)) = O=C(CCc1ccc(F)cc1)*; X10 = O=C([C@@H](Cc1cncs1)N[*:1])[*:2]; d1Nal = N[C@H](Cc1cccc2ccccc12)C(=O)O; Lys(iPr) = CC(C)NCCCC[C@H](N)C(=O)O; NMeY = CN[C@@H](Cc1ccc(O)cc1)C(=O)O; Pyrazinecarbonyl = O=C(c1cnccn1)*; Benzoyl(4-F) = O=C(c1ccc(F)cc1)*; Orn = NCCC[C@H](N)C(=O)O
Ki reference
REPORTED_METRIC: Ki (nM)

compound="CC(C)C[C@H](NC(=O)[C@@H](CCCCNC(=O)c1cnccn1)NC(=O)[C@H](Cc1ccc(O)cc1)N(C)C(=O)[C@H](CO)NC(=O)[C@@H](Cc1cccc2ccccc12)NC(=O)CCc1ccc(F)cc1)C(=O)N[C@@H](CCCCNC(C)C)C(=O)N1CCC[C@H]1C(=O)N[C@H](C)C(N)=O [Compound 207] ({Propanoyl(3-(4-F-phenyl))}-[d1Nal]S[NMeY][dK](Pyrazinecarbonyl)L[Lys(iPr)]P[dA]-NH2)" reported_metric=Ki unit_name=nM data_value=0.00288
compound="CC(=O)NCCC[C@H](NC(=O)c1ccc(F)cc1)C(=O)N[C@H](Cc1cccc2ccccc12)C(=O)N[C@@H](CO)C(=O)N(C)[C@@H](Cc1ccc(O)cc1)C(=O)N[C@H](Cc1cncs1)C(=O)N[C@@H](CC(C)C)C(=O)N[C@@H](CCCCNC(C)C)C(=O)N1CCC[C@H]1C(=O)N[C@H](C)C(N)=O [Compound 215] ({Benzoyl(4-F)}-[Orn](Ac)[d1Nal]S[NMeY][X10]L[Lys(iPr)]P[dA]-NH2)" reported_metric=Ki unit_name=nM data_value=0.339
